# Target of assay: acetylcholine receptor
# Test summary: SPR, receptor on CM5 chip, peptide 10 µM
Observed property: Binding affinity (RU)

[
  {
    "Binder": "RKLFSR [6mer-1-502]",
    "Value measured": 146
  },
  {
    "Binder": "KKSIYR [6mer-1-134]",
    "Value measured": 128
  },
  {
    "Binder": "KRGIQR [6mer-1-131]",
    "Value measured": 142
  },
  {
    "Binder": "RKRRLR [6mer-1-522]",
    "Value measured": 126
  },
  {
    "Binder": "KKQLRR [6mer-1-77]",
    "Value measured": 149
  },
  {
    "Binder": "KKQFYK [6mer-1-480]",
    "Value measured": 121
  },
  {
    "Binder": "RRGQTK [6mer-1-84]",
    "Value measured": 142
  },
  {
    "Binder": "KRQQTK [6mer-1-477]",
    "Value measured": 145
  }
]
